- measurement.target: Human CCR5 receptor (Homo sapiens, UniProt P51681)
- Construct: expressed in transfected cells
- Sequence (P51681 whole entry): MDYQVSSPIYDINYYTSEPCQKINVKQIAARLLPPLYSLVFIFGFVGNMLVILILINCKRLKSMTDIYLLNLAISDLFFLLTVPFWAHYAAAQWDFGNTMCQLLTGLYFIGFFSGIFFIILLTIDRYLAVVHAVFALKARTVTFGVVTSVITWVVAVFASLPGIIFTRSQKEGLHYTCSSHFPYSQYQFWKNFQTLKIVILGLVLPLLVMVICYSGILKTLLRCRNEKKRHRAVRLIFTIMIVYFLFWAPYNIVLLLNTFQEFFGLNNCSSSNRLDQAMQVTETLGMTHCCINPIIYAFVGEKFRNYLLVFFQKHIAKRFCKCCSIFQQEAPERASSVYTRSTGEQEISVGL
- measurement.protocol: Human CCR5 receptor-ligand binding assay (125I chemokine displacement on CHO-Gα16-hCCR5 cells)
- test.context: 0.1 nM 125I RANTES, RT 2 h, read-out: Binding IC50 RANTES
property: pIC50
Please express pIC50 as -log10 of the molar concentration.

Form: compound = CCCCC1CN(CC2CCOCC2)C(=O)OC12CCN(C1(C)CCN(C(=O)c3c(C)ncnc3C)CC1)CC2 (centres unmarked) [Compound I-415] ; pIC50 = 8.11

Form: compound = CCCCC1N(CC2CCCCC2)C(=O)OC12CCN(C1CCN(C(=O)c3c(C)cccc3C)CC1)CC2 (centres unmarked) [Compound I-1] ; pIC50 = 7.85

Form: compound = CCCCC1N(CC2CCCCC2)C(=O)OC12CCN(C1(C)CCN(C(=O)c3c(C)ncnc3C)CC1)CC2 (centres unmarked) [Compound I-212] ; pIC50 = 8.14

Form: compound = CCCC[C@@H]1N(CC2CCCCC2)C(=O)OC12CCN(C1CCN(C(=O)c3c(C)cccc3C)CC1)CC2 [Compound I-159] ; pIC50 = 8.29

Form: compound = CCCCC1N(CC2CCCCC2)C(=O)OC12CCN(C1(C)CCN(C(=O)c3c(C)nn(Cc4ccccc4)c3C)CC1)CC2 (centres unmarked) [Compound I-214] ; pIC50 = 8.09

Ref: patent US7538122B2
